Recorded ED50 for the following compounds
# Tested on: Mus musculus
# ASSAY DETAILS: Inhibition of acetic acid induced mouse writhing assay following s.c. administration.
# Format: functional
# TEST SETTINGS: sc
READOUT: ED50 (µmol/kg)

                                    compound  unit_name  relation_qualifier  measured_number
 0  C=C1CCC2C3Cc4ccc(O)cc4C2(CCN3CC2CCC2)C1 (stereo unspecified)    µmol/kg                   =             0.22
 1  CC(C)=CCN1CC[C@]2(C)c3cc(O)ccc3C[C@H]1[C@H]2C [(+)-PENTAZOCINE]    µmol/kg                   =             12.9
 2  C=CCN1CC[C@]23c4c5ccc(O)c4O[C@H]2[C@@H](O)C=C[C@H]3[C@H]1C5 [NALORPHINE]    µmol/kg                   =              3.5
 3  C[C@H]1CC(=O)CC23CCN(CC4CCC4)C(Cc4ccc(O)cc42)C13 (stereo partly specified)    µmol/kg                   =             0.29
 4  O=C1CCC2C3Cc4ccc(O)cc4C2(CCN3CC2CC2)C1 (stereo unspecified)    µmol/kg                   =              3.3
 5  C[C@H]1CC(=O)CC23CCN(CC4CC4)C(Cc4ccc(O)cc42)C13 (stereo partly specified)    µmol/kg                   =             10.2
 6  C=C1CCC2C3Cc4ccc(OC)cc4C2(CCN3CC2CCC2)C1 (stereo unspecified)    µmol/kg                   =              3.2
 7  C=C1C[C@H](C)C2C3Cc4ccc(O)cc4C2(CCN3CC2CCC2)C1 (stereo partly specified)    µmol/kg                   =             0.53
 8  C=C1C[C@H](C)C2C3Cc4ccc(OC)cc4C2(CCN3CC2CCC2)C1 (stereo partly specified)    µmol/kg                   =             16.5
 9  C=C1CCC2C3Cc4ccc(O)cc4C2(CCN3CC2CC2)C1 (stereo unspecified)    µmol/kg                   =              1.2
10  C=C1C[C@H](CC)C2C3Cc4ccc(O)cc4C2(CCN3CC2CCC2)C1 (stereo partly specified)    µmol/kg                   >               28
11  COc1ccc2c(c1)C13CCN(CC4CCC4)C(C2)C1[C@@H](C)CC(=O)C3 (stereo partly specified)    µmol/kg                   =             1.38
12  CC[C@H]1CC(=O)CC23CCN(CC4CCC4)C(Cc4ccc(O)cc42)C13 (stereo partly specified)    µmol/kg                   =             0.54
13  C=C1C[C@H](C)C2C3Cc4ccc(O)cc4C2(CCN3CC2CC2)C1 (stereo partly specified)    µmol/kg                   =              5.3
14  O=C1CC[C@@]2(O)[C@H]3Cc4ccc(O)c5c4[C@@]2(CCN3CC2CC2)[C@H]1O5 [NALTREXONE]    µmol/kg                   >               28
15  C=C1C[C@H](C)C2C3Cc4ccc(OC)cc4C2(CCN3CC2CC2)C1 (stereo partly specified)    µmol/kg                   =              9.5
